- study_target: cAMP-dependent protein kinase (PKA) (Homo sapiens, UniProt P22694+P17612+P22612)
- experiment_description: Inhibition of PKA (unknown origin) by radiometric assay
- Format: protein assay
metric: IC50 (nM)
Express the result in nM but write the number alone.

Some solved entries appear below for comparison.
>>> print(df.to_string())
                                   compound                              study_target  readout_units  assay_result
0  COC(=O)c1ccc(NC(=O)C2(CN(C)C)CCN(c3ncnc4[nH]cc(C)c34)CC2)cc1  cAMP-dependent protein kinase (PKA) (Homo sapiens, UniProt P22694+P17612+P22612)             nM           2.7
1  CCC(C)OC(=O)c1cccc(NC(=O)C2(CN(C)C)CCN(c3ncnc4[nH]cc(C)c34)CC2)c1 (centres undefined)  cAMP-dependent protein kinase (PKA) (Homo sapiens, UniProt P22694+P17612+P22612)             nM            24
2  COC(=O)c1cccc(NC(=O)C2(N)CCN(c3ncnc4[nH]cc(C)c34)CC2)c1  cAMP-dependent protein kinase (PKA) (Homo sapiens, UniProt P22694+P17612+P22612)             nM            81

Please look at the following compound next.
Report IC50, nothing else, for this compound: `CCCOC(=O)c1cccc(NC(=O)C2(CN(C)C)CCN(c3ncnc4[nH]cc(C)c34)CC2)c1`
5.8

----------
- study_target: cAMP-dependent protein kinase (PKA) (Homo sapiens, UniProt P22694+P17612+P22612)
- experiment_description: Inhibition of PKA (unknown origin) by radiometric assay
- Assay type: protein assay
metric: IC50 (nM)
Provide only the numeric value, understood in nM.

                            compound_smiles  metric  assay_result
0  COC(=O)Cc1cccc(NC(=O)C2(CN(C)C)CCN(c3ncnc4[nH]cc(C)c34)CC2)c1    IC50             7
1  C#CCOC(=O)c1cccc(NC(=O)C2(CN(C)C)CCN(c3ncnc4[nH]cc(C)c34)CC2)c1    IC50           2.2
2  COC(=O)c1cccc(NC(=O)C2(N)CCN(c3ncnc4[nH]ccc34)CC2)c1    IC50            69

Below: the item to evaluate.
For the compound `Cc1c[nH]c2ncnc(N3CCC(CN(C)C)(C(=O)Nc4cccc(OC(=O)N(C)C)c4)CC3)c12` , give its measured IC50 value.
2.6

----------
List of pIC50 tested on Rho-associated protein kinase 2 (Homo sapiens, UniProt O75116).
Sequence (O75116 whole entry): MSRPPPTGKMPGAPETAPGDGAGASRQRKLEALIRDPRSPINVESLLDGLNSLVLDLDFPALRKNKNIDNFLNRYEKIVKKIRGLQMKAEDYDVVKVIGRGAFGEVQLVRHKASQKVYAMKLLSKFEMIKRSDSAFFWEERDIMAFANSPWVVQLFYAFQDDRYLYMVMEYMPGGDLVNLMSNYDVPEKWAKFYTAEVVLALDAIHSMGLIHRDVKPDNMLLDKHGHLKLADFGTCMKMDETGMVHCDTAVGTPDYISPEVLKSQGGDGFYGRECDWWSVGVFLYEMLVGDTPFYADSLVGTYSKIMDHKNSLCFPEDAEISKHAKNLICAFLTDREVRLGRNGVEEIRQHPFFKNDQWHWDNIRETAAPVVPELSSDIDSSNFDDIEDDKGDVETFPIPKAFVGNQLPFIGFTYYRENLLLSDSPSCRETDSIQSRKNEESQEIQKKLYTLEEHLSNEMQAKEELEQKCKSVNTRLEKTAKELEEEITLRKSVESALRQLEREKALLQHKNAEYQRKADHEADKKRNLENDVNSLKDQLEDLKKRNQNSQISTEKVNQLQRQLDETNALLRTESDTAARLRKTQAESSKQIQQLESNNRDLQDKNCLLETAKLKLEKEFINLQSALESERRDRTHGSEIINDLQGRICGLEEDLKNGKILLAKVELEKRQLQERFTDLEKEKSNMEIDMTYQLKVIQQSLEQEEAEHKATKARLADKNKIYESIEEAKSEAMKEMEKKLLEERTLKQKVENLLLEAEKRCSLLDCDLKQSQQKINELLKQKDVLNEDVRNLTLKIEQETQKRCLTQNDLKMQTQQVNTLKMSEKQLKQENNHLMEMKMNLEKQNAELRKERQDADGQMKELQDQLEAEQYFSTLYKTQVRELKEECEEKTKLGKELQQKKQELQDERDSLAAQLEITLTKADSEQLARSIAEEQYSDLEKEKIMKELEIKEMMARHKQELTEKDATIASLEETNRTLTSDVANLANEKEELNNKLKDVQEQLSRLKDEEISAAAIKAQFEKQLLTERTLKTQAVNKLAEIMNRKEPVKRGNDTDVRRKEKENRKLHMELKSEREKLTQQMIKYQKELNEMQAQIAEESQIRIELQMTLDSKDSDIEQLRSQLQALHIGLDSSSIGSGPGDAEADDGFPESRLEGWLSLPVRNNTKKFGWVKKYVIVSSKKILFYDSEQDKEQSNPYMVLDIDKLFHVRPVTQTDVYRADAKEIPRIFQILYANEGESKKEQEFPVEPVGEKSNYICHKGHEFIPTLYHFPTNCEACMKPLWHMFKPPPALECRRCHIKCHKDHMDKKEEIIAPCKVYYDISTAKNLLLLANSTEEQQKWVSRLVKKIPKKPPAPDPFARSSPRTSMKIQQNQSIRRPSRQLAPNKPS
In plain terms, pIC50 is the concentration in mol/L turned into minus its base-10 logarithm.

Consider the worked cases shown below.
>>> df
                            compound_smiles  metric  assay_result
0  COC(=O)c1cccc(NC(=O)C2(CN(C)C)CCN(c3ncnc4[nH]ccc34)CC2)c1   pIC50          8.74
1  Cc1c[nH]c2ncnc(N3CCC(CN(C)C)(C(=O)Nc4cccc(OC(=O)N(C)C)c4)CC3)c12   pIC50          7.40
2  COC(=O)Cc1cccc(NC(=O)C2(CN(C)C)CCN(c3ncnc4[nH]cc(C)c34)CC2)c1   pIC50          7.25

For the molecule `C#CCOC(=O)c1cccc(NC(=O)C2(CN(C)C)CCN(c3ncnc4[nH]cc(C)c34)CC2)c1` , report pIC50.
7.80

Hello, please tell me recorded pIC50 for this one: `Cc1c[nH]c2ncnc(N3CCC(CN(C)C)(C(=O)Nc4cccc(C(=O)OC(C)C)c4)CC3)c12`
7.28
